- System: SF-268 CNS
- assay-notes: NCI-60 one-dose screen, 48 h (100 = growth as untreated, 0 = no growth, -100 = all killed)
- particulars: 10 µM unless noted
About 83,000 compounds went through this panel and 20% of them were active in at least one assay; those are over-represented in the sample as a whole. Activity calls are given as the source filed them. The calls were made as follows: active = growth percent below 10; inactive = the rest.
Exercise: state measured growth for each of the molecules provided.

Solved cases (3 shown):
CC(O)CN(CC(C)O)c1ccc2c(c1)Cc1cc([N+](=O)[O-])ccc1-2 (stereo not given) : 85.2% (inactive)
O=C1c2cccc3cccc(c23)C(=O)N1CCCCN1CCN(CCCCOc2ccc(-c3nc4ccc(N5CCOCC5)cc4[nH]3)cc2)CC1 : 68.6% (inactive)
O=C(CN(C(=O)Cn1c(=O)n2nnnc2c2ccccc21)c1ccccc1C(F)(F)F)Nc1ccc(C(F)(F)F)cc1 : 103% (inactive)

Parameter requested: growth. Apply to each item below.
1. C#CCOc1ccc2ncnc(N3CCC(NC(=O)CCl)CC3)c2c1
2. O=C1OC(c2ccccc2)C(O)=C1c1ccccc1 (stereo not given)

49.1% [8.25 µM] (inactive)
96.4% (inactive)

====

- System: IGROV1 ovarian
- assay-notes: NCI-60 one-dose screen, 48 h
- particulars: 10 µM unless noted
About 83,000 compounds went through this panel and 20% of them were active in at least one assay; those are over-represented in the sample as a whole. Active and inactive are the calls of the source. How the source made its calls: active means growth percent below 10; inactive means the rest.
Could you please pick one outcome from this set? active, inactive

CN1CCN(Cc2ccc(NC(=O)c3cncc(C#Cc4cncn5ccnc45)c3)cc2C(F)(F)F)CC1 : inactive
COc1cccc(NC(=O)c2sc3nc(C)c(C(C)=O)cc3c2N)c1 : inactive
CCCOc1cc2ccccc2cc1C(=O)Nc1nc(N)c2c(ccc3nccc32)[nH]1 : active
Cc1ccc2oc(=O)cc(C3c4ccc([nH]4)C(c4cc(=O)oc5ccc(C)cc45)c4ccc([nH]4)C(c4cc(=O)oc5ccc(C)cc45)c4ccc([nH]4)C(c4cc(=O)oc5ccc(C)cc45)c4ccc3[nH]4)c2c1 (stereo not given) : active

Please let me know the test result on file for O=c1nc2oc3ccc4ccccc4c3cc-2s1 . inactive

Please let me know the test result on file for c1ccc(CCNc2ncnc3[nH]ncc23)cc1 . inactive

Please let me know the test result on file for O=C1CSC(=S)N1CCc1ccc(O)cc1 . inactive

Please let me know the test result on file for Cn1cc(-c2nonc2-c2c[nH]c3ccccc23)c2cccnc21 . inactive

Please let me know the test result on file for O=C(CCCCC(=O)N/N=C\c1ccccc1O)N/N=C\c1ccccc1O . inactive

====

- Tested on: K-562 leukemia
- assay-notes: NCI-60 one-dose screen, 48 h
- particulars: 10 µM unless noted
This is part of a sample that, as a whole, favours compounds with a hit. Of some 83,000 tested, about 20% had one in any assay. The source made the active and inactive calls. How the source made its calls: active means growth percent below 10; inactive means the rest.
Could you please pick one outcome from this set? T for active, F for inactive

C#CCOc1ccc2ncnc(Nc3cccc(CNC(=O)CCl)c3)c2c1 : F
COC(=O)c1ccc(NC(=O)c2ccc(-c3cccc([N+](=O)[O-])c3)o2)cc1 : F
COc1ccc(C(=O)c2sc3nc4c(c(-c5cccnc5)c3c2N)CCCC4)cc1OC : F
Cc1[nH]c(-c2cc(N)ccc2Cl)c2c1C(=O)CCCC2 : F
CC(=O)Nc1ccc(-n2c(O)c(/C=N/NC(=O)Cc3ccccc3Nc3c(Cl)cccc3Cl)sc2=S)cc1 : F

Please let me know the test result on file for COc1ccc(-c2cc(=O)c3c(OC)c4ccoc4cc3o2)cc1 . F

Please let me know the test result on file for COc1cc2nc(N3CCCC3)nc(NCc3ccccc3)c2cc1OC . T

Please let me know the test result on file for Cc1nc2c3c(-c4ccccc4)c(-c4ccccc4)oc3ncn2n1 . F

// provenance: PubChem BioAssay (NCI)
